Origin of measurements: paper PMC3919453

Target: KOR (Homo sapiens, UniProt P41145)
Sequence (P41145 whole entry): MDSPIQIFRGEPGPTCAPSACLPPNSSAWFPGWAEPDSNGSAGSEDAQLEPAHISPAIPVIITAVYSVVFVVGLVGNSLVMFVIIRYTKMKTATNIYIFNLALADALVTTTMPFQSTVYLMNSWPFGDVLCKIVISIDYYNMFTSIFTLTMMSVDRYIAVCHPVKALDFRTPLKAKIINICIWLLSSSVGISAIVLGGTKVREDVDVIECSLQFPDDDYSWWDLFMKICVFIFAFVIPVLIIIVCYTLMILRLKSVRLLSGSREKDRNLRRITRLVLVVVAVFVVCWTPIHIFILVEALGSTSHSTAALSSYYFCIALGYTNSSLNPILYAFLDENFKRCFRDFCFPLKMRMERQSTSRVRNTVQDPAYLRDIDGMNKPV
Assay: agonist-stimulated [35S]GTPγS binding, KOR
Details: percent maximal stimulation relative to standard agonist U69,593 at 10 µM; dns: does not stimulate
Property Name: % stimulation KOR

[
  {
    "Molecule": "Cc1cc(O)cc(C)c1C[C@H](N)C(=O)N1CCC(Cc2ccccc2)CC1 [Compound 3]",
    "Measured On": "KOR (Homo sapiens, UniProt P41145)",
    "Property Name": "% stimulation KOR",
    "Result": "dns"
  },
  {
    "Molecule": "Cc1cc(O)cc(C)c1C[C@H](N)C(=O)N1CCN(CCC(c2ccccc2)c2ccccc2)CC1 [Compound 8]",
    "Measured On": "KOR (Homo sapiens, UniProt P41145)",
    "Property Name": "% stimulation KOR",
    "Result": "dns"
  },
  {
    "Molecule": "Cc1cc(O)cc(C)c1C[C@H](N)C(=O)N1CCC(CCCc2ccccc2)CC1 [Compound 4]",
    "Measured On": "KOR (Homo sapiens, UniProt P41145)",
    "Property Name": "% stimulation KOR",
    "Result": "dns"
  },
  {
    "Molecule": "Cc1cc(O)cc(C)c1C[C@H](N)C(=O)N1CCN(CCCc2ccccc2)CC1 [Compound 5]",
    "Measured On": "KOR (Homo sapiens, UniProt P41145)",
    "Property Name": "% stimulation KOR",
    "Result": "dns"
  },
  {
    "Molecule": "Cc1cc(O)cc(C)c1C[C@H](N)C(=O)N1CCN(CCCc2cccc3ccccc23)CC1 [Compound 6]",
    "Measured On": "KOR (Homo sapiens, UniProt P41145)",
    "Property Name": "% stimulation KOR",
    "Result": "dns"
  },
  {
    "Molecule": "Cc1cc(O)cc(C)c1C[C@H](N)C(=O)N1CCN(C/C=C/c2cccc3ccccc23)CC1 [Compound 7]",
    "Measured On": "KOR (Homo sapiens, UniProt P41145)",
    "Property Name": "% stimulation KOR",
    "Result": "dns"
  },
  {
    "Molecule": "Cc1cc(O)cc(C)c1C[C@H](N)C(=O)N1CCC(Cc2ccccc2)c2ccccc21 (stereo partly shown) [Compound 2]",
    "Measured On": "KOR (Homo sapiens, UniProt P41145)",
    "Property Name": "% stimulation KOR",
    "Result": "dns"
  }
]
